# Test system: IL-23 induced STAT3 signaling (IL-23 receptor) in HEK-Blue IL-23 cells
# protocol_description: Inhibition of IL-23 induced STAT3 signaling in HEK-Blue IL-23 cells, SEAP reporter (Table 9)
# Type: cell-based
# measurement_conditions: human IL23 0.25 ng/ml, overnight, read-out: Inhibition of IL-23 induced pSTAT3 (IC50 nM)
Numbered stars: 1 amine (or outer) side, 2 acyl side, 3 side chain; on linkers, the order of the positions; unused ones are H or OH. Bridge positions count the residues as written; N and C are the ends. Square brackets hold non-standard residues; d marks the D form. Peptide text beside a SMILES is read from it. * marks the point of attachment. Lys(Me,(CH2)4NMe(CH2)4CO) = CN(CCCCC(=O)[*:3])CCCCN(C)CCCC[C@H](N[*:1])C(=O)[*:2]; Trp(7-Me) = Cc1cccc2c(C[C@H](N)C(=O)O)c[nH]c12; NH(2-(3-pyridyl)ethyl) = c1cncc(CCN*)c1; 2Nal = N[C@@H](Cc1ccc2ccccc2c1)C(=O)O; Thp = NC1(C(=O)O)CCOCC1; Me2NCH2CH2 = CN(C)CC*; Aib = CC(C)(N)C(=O)O
measured_quantity: IC50 (nM)
# unit: nM | format: bare number

Reported IC50 for Cc1cccc2c(C[C@@H]3NC(=O)CCCCN(C)CCCCN(C)CCCC[C@@H](C(=O)NCC(=O)NCCc4cccnc4)NC(=O)C(C)(C)NC(=O)[C@H](Cc4ccc5ccccc5c4)NC(=O)[C@H](Cc4ccc(OCCN(C)C)cc4)NC(=O)C4(CCOCC4)NC(=O)[C@H](CCC(N)=O)NC3=O)c[nH]c12 [compound 24] ([Trp(7-Me)]Q[Thp]Y(Me2NCH2CH2)[2Nal][Aib][Lys(Me,(CH2)4NMe(CH2)4CO)]G-{NH(2-(3-pyridyl)ethyl)}; lactam N-7) was 6.95

Now consider a different compound.
Reported IC50 for CC(=O)NCCCC[C@@H]1NC(=O)[C@H](Cc2c[nH]c3c(C)cccc23)NC(=O)[C@@H](NC(C)=O)CCCCN(C)CCCCN(C)CCCC[C@@H](C(=O)N[C@@H](CC(N)=O)C(=O)N[C@@H](Cc2cccnc2)C(=O)N(C)CC(N)=O)NC(=O)C(C)(C)NC(=O)[C@@H](Cc2ccc3ccccc3c2)NC(=O)[C@H](Cc2ccc(OCCN(C)C)cc2)NC(=O)C2(CCOCC2)NC1=O was 0.17

====

# protocol_description: Solubility of peptide compounds in buffer formulations (Table 5)
# Format: physicochemical
# measurement_conditions: Buffer pH 1.1 (head; method: 50 mM HCl pH 1.2), 2 h agitation, target 1 mg/ml; read-out: Solubility, Buffer pH 1.1
Numbered stars: 1 amine (or outer) side, 2 acyl side, 3 side chain; on linkers, the order of the positions; unused ones are H or OH. Bridge positions count the residues as written; N and C are the ends. Square brackets hold non-standard residues; d marks the D form. Peptide text beside a SMILES is read from it. * marks the point of attachment. Lys(Me,(CH2)4NMe(CH2)5CO) = CN(CCCCCC(=O)[*:3])CCCCN(C)CCCC[C@H](N[*:1])C(=O)[*:2]; Lys(Me,(CH2)4NMe(CH2)4CO) = CN(CCCCC(=O)[*:3])CCCCN(C)CCCC[C@H](N[*:1])C(=O)[*:2]; Trp(7-Me) = Cc1cccc2c(C[C@H](N)C(=O)O)c[nH]c12; NH(2-(3-pyridyl)ethyl) = c1cncc(CCN*)c1; NH(CH2)9CO = O=C(CCCCCCCCCN[*:1])[*:2]; 2Nal = N[C@@H](Cc1ccc2ccccc2c1)C(=O)O; d2Nal = N[C@H](Cc1ccc2ccccc2c1)C(=O)O; 3Pal = N[C@@H](Cc1cccnc1)C(=O)O; Aun = NCCCCCCCCCCC(=O)O; Thp = NC1(C(=O)O)CCOCC1; Me2NCH2CH2 = CN(C)CC*; Aib = CC(C)(N)C(=O)O; Aoc = NCCCCCCCC(=O)O; Sar = CNCC(=O)O
Recorded measurements of solubility at 2 h, one per entry

Worked cases, answers included:
Reported solubility at 2 h for Cc1cccc2c(C[C@@H]3NC(=O)CCCCCCCCCNC(=O)CC[C@@H](C(=O)N[C@@H](CC(N)=O)C(=O)N[C@@H](Cc4cccnc4)C(=O)N(C)CC(N)=O)NC(=O)C(C)(C)NC(=O)[C@H](Cc4ccc5ccccc5c4)NC(=O)[C@H](Cc4ccc(OCCN(C)C)cc4)NC(=O)C4(CCOCC4)NC(=O)[C@H](CC(C)C)NC3=O)c[nH]c12 [compound 8] ([NH(CH2)9CO][Trp(7-Me)]L[Thp]Y(Me2NCH2CH2)[2Nal][Aib]EN[3Pal][Sar]-NH2; lactam N-8) was 20 µg/mL

Reported solubility at 2 h for Cc1cccc2c(C[C@@H]3NC(=O)CCCCCCCCCCNC(=O)CC[C@@H](C(=O)N[C@@H](CC(N)=O)C(=O)N[C@@H](Cc4cccnc4)C(=O)N(C)CC(N)=O)NC(=O)C(C)(C)NC(=O)[C@H](Cc4ccc5ccccc5c4)NC(=O)[C@H](Cc4ccc(OCCN(C)C)cc4)NC(=O)C(C)(C)NC(=O)[C@H](CCC(N)=O)NC3=O)c[nH]c12 [compound 35] ([Aun][Trp(7-Me)]Q[Aib]Y(Me2NCH2CH2)[2Nal][Aib]EN[3Pal][Sar]-NH2; lactam N-8) was ≥ 870 µg/mL

Reported solubility at 2 h for CC(=O)NCCCC[C@@H]1NC(=O)[C@H](Cc2c[nH]c3c(C)cccc23)NC(=O)CCCCCN(C)CCCCN(C)CCCC[C@@H](C(=O)NCC(=O)N[C@@H](Cc2cccnc2)C(=O)N(C)CC(N)=O)NC(=O)C(C)(C)NC(=O)[C@H](Cc2ccc3ccccc3c2)NC(=O)[C@H](Cc2ccc(OCCN(C)C)cc2)NC(=O)C2(CCOCC2)NC1=O [compound 27] ([Trp(7-Me)]K(Ac)[Thp]Y(Me2NCH2CH2)[2Nal][Aib][Lys(Me,(CH2)4NMe(CH2)5CO)]G[3Pal][Sar]-NH2; lactam N-7) was ≥ 980 µg/mL

Reported solubility at 2 h for Cc1cccc2c(C[C@@H]3NC(=O)CCCCCCCCCNC(=O)CC[C@@H](C(=O)N[C@@H](CC(N)=O)C(=O)N[C@@H](Cc4cccnc4)C(=O)N(C)CC(N)=O)NC(=O)C(C)(C)NC(=O)[C@H](Cc4ccc5ccccc5c4)NC(=O)[C@H](Cc4ccc(OCCN(C)C)cc4)NC(=O)C4(CCOCC4)NC(=O)[C@H](CCC(N)=O)NC3=O)c[nH]c12 [compound 5] ([NH(CH2)9CO][Trp(7-Me)]Q[Thp]Y(Me2NCH2CH2)[2Nal][Aib]EN[3Pal][Sar]-NH2; lactam N-8) was ≥ 1010 µg/mL

Reported solubility at 2 h for Cc1cccc2c(C[C@@H]3NC(=O)CCCCCCCCCCNC(=O)CC[C@@H](C(=O)N[C@@H](CC(N)=O)C(=O)N[C@@H](Cc4cccnc4)C(=O)N(C)CC(N)=O)NC(=O)C(C)(C)NC(=O)[C@@H](Cc4ccc5ccccc5c4)NC(=O)[C@H](Cc4ccc(OCCN(C)C)cc4)NC(=O)C4(CCOCC4)NC(=O)[C@H](CCC(N)=O)NC3=O)c[nH]c12 [compound 4] ([Aun][Trp(7-Me)]Q[Thp]Y(Me2NCH2CH2)[d2Nal][Aib]EN[3Pal][Sar]-NH2; lactam N-8) was ≥ 970 µg/mL

Reported solubility at 2 h for CC(=O)NCCCC[C@@H]1NC(=O)[C@H](Cc2c[nH]c3c(C)cccc23)NC(=O)CCCCN(C)CCCCN(C)CCCC[C@@H](C(=O)NCC(=O)NCCc2cccnc2)NC(=O)C2(CCOCC2)NC(=O)[C@H](Cc2ccc3ccccc3c2)NC(=O)[C@H](Cc2ccc(OCCN(C)C)cc2)NC(=O)C2(CCOCC2)NC1=O [compound 48] ([Trp(7-Me)]K(Ac)[Thp]Y(Me2NCH2CH2)[2Nal][Thp][Lys(Me,(CH2)4NMe(CH2)4CO)]G-{NH(2-(3-pyridyl)ethyl)}; lactam N-7) was ≥ 980 µg/mL

Reported solubility at 2 h for Cc1cccc2c(C[C@@H]3NC(=O)CCCCCCCNC(=O)CC[C@@H](C(=O)N[C@@H](CC(N)=O)C(=O)N[C@@H](Cc4cccnc4)C(=O)N(C)CC(N)=O)NC(=O)C(C)(C)NC(=O)[C@H](Cc4ccc5ccccc5c4)NC(=O)[C@H](Cc4ccc(OCCN(C)C)cc4)NC(=O)C4(CCOCC4)NC(=O)[C@H](CC(C)C)NC3=O)c[nH]c12 [compound 9] ([Aoc][Trp(7-Me)]L[Thp]Y(Me2NCH2CH2)[2Nal][Aib]EN[3Pal][Sar]-NH2; lactam N-8) was ≥ 1160 µg/mL

Reported solubility at 2 h for CC(=O)NCCCC[C@@H]1NC(=O)[C@H](Cc2c[nH]c3c(C)cccc23)NC(=O)CCCCCN(C)CCCCN(C)CCCC[C@@H](C(=O)N[C@@H](CC(N)=O)C(=O)N[C@@H](Cc2cccnc2)C(=O)N(C)CC(N)=O)NC(=O)C(C)(C)NC(=O)[C@H](Cc2ccc3ccccc3c2)NC(=O)[C@H](Cc2ccc(OCCN(C)C)cc2)NC(=O)C2(CCOCC2)NC1=O [compound 18] ([Trp(7-Me)]K(Ac)[Thp]Y(Me2NCH2CH2)[2Nal][Aib][Lys(Me,(CH2)4NMe(CH2)5CO)]N[3Pal][Sar]-NH2; lactam N-7) was ≥ 1060 µg/mL

Reported solubility at 2 h for Cc1cccc2c(C[C@@H]3NC(=O)CCCCCCCNC(=O)CC[C@@H](C(=O)N[C@@H](CC(N)=O)C(=O)N[C@@H](Cc4cccnc4)C(=O)N(C)CC(N)=O)NC(=O)C(C)(C)NC(=O)[C@H](Cc4ccc5ccccc5c4)NC(=O)[C@H](Cc4ccc(OCCN(C)C)cc4)NC(=O)C4(CCOCC4)NC(=O)[C@H](CCC(N)=O)NC3=O)c[nH]c12 [compound 6] ([Aoc][Trp(7-Me)]Q[Thp]Y(Me2NCH2CH2)[2Nal][Aib]EN[3Pal][Sar]-NH2; lactam N-8) was ≥ 1240 µg/mL

Now consider a different compound.
Reported solubility at 2 h for CC(=O)NCCCC[C@@H]1NC(=O)[C@H](Cc2c[nH]c3c(C)cccc23)NC(=O)[C@@H](NC(C)=O)CCCCN(C)CCCCN(C)CCCC[C@@H](C(=O)N[C@@H](CC(N)=O)C(=O)N[C@@H](Cc2cccnc2)C(=O)N(C)CC(N)=O)NC(=O)C(C)(C)NC(=O)[C@@H](Cc2ccc3ccccc3c2)NC(=O)[C@H](Cc2ccc(OCCN(C)C)cc2)NC(=O)C2(CCOCC2)NC1=O was ≥ 1190 µg/mL
